- MEASURED TARGET: flag-tagged HIF1α (AA 786-826) / His6-tagged p300 (AA 323-423) complex (Homo sapiens)
- Construct: His6-tagged p300 (AA 323-423); made in house; host or cells: E. coli (pETDuet vector)
- EXPERIMENT NOTES: HIF1α p300 displacement assay (TR FRET, +CHAPS)
- Assay type: binding
- EXPERIMENTAL CONTEXT: read-out: IC50 (nM) (HIF1α_p300 Displacement + CHAPS)
Bridge positions count the residues as written; N and C are the ends. Square brackets hold non-standard residues; d marks the D form. Peptide text beside a SMILES is read from it. S5 = C=CCCC[C@](C)(N)C(=O)O
ASSAY READOUT: IC50

Entry CC[C@H](C)[C@H](NC(=O)[C@H](Cc1ccccc1)NC(C)=O)C(=O)N[C@@H](CC(=O)O)C(=O)N[C@@H](CCC(=O)O)C(=O)N[C@@H](CCC(=O)O)C(=O)N[C@H](C(=O)N[C@@H](CC(C)C)C(=O)N[C@@H](CCSC)C(=O)N[C@@]1(C)CCCC=CCCC[C@@](C)(C(=O)N[C@@H](CCSC)C(=O)N[C@@H](C)C(=O)N[C@@H](CC(C)C)C(N)=O)NC(=O)[C@H]([C@@H](C)CC)NC(=O)[C@H](C(C)C)NC(=O)[C@H](Cc2ccccc2)NC1=O)C(C)C [SP-236] (Ac-FIDEEVLM[S5]FVI[S5]MAL-NH2; staple 9-13) : reported IC50 = ? > 700 nM

====

- Tested on: HRE-bla ME-180 cells
- EXPERIMENT NOTES: Reporter gene assay (HRE-bla ME-180 HIF reporter, GeneBLAzer)
- Format: cell-based, human
- EXPERIMENTAL CONTEXT: 24 hour normoxia
Bridge positions count the residues as written; N and C are the ends. Square brackets hold non-standard residues; d marks the D form. Peptide text beside a SMILES is read from it. S5 = C=CCCC[C@](C)(N)C(=O)O; Nle = CCCC[C@H](N)C(=O)O
ASSAY READOUT: EC50

Entry CCCC[C@H](NC(=O)[C@H](CCC(=O)O)NC(=O)[C@@H](NC(=O)[C@@H](NC(=O)[C@H](CC(C)C)NC(=O)[C@]1(C)CCCC=CCCC[C@](C)(NC(=O)[C@H](C)NC(=O)[C@H](CC(=O)O)NC(=O)[C@@H](NC(=O)[C@H](Cc2ccccc2)NC(C)=O)[C@@H](C)CC)C(=O)N[C@@H](C(C)C)C(=O)N[C@@H](CC(C)C)C(=O)N[C@@H](CCCC)C(=O)N1)C(C)C)[C@@H](C)CC)C(=O)N[C@@H](C)C(=O)N[C@@H](CC(C)C)C(N)=O [SP-148] (Ac-FIDA[S5]VL[Nle][S5]LVIE[Nle]AL-NH2; staple 5-9) : reported EC50 = ? > 30 µM

Queued: CCCC[C@H](NC(=O)[C@H](CCC(=O)O)NC(=O)[C@@H](NC(=O)[C@@H](NC(=O)[C@H](CC(C)C)NC(=O)[C@]1(C)CCCC=CCCC[C@](C)(NC(=O)[C@H](CCC(=O)O)NC(=O)[C@H](CC(=O)O)NC(=O)[C@@H](NC(=O)[C@H](Cc2ccccc2)NC(C)=O)[C@@H](C)CC)C(=O)N[C@@H](CC(N)=O)C(=O)N[C@@H](CC(C)C)C(=O)N[C@@H](CCCC)C(=O)N1)C(C)C)[C@@H](C)CC)C(=O)N[C@@H](C)C(=O)N[C@@H](CC(C)C)C(N)=O [SP-141] (Ac-FIDE[S5]NL[Nle][S5]LVIE[Nle]AL-NH2; staple 5-9) 15 to 30 µM

Queued: CC[C@H](C)[C@H](NC(=O)[C@H](Cc1ccccc1)NC(C)=O)C(=O)N[C@@H](CC(=O)O)C(=O)N[C@@H](CCC(=O)O)C(=O)N[C@@H](CO)C(=O)N[C@H](C(=O)N[C@@H](CC(C)C)C(=O)N[C@@H](CCSC)C(=O)N[C@@]1(C)CCCC=CCCC[C@@](C)(C(=O)N[C@@H](CCSC)C(=O)N[C@@H](C)C(=O)N[C@@H](CC(C)C)C(N)=O)NC(=O)[C@H]([C@@H](C)CC)NC(=O)[C@H](C(C)C)NC(=O)[C@H](CC(C)C)NC1=O)C(C)C [SP-238] (Ac-FIDESVLM[S5]LVI[S5]MAL-NH2; staple 9-13) > 30 µM

Queued: CC[C@H](C)[C@H](NC(=O)[C@H](Cc1ccccc1)NC(C)=O)C(=O)N[C@@H](CC(=O)O)C(=O)N[C@@H](CCC(=O)O)C(=O)N[C@@]1(C)CCCC=CCCC[C@@](C)(C(=O)N[C@@H](CC(C)C)C(=O)N[C@H](C(=O)N[C@H](C(=O)N[C@@H](CCC(=O)O)C(=O)N[C@@H](CCSC)C(=O)N[C@@H](C)C(=O)N[C@@H](C)C(N)=O)[C@@H](C)CC)C(C)C)NC(=O)[C@H](CCSC)NC(=O)[C@H](CC(C)C)NC(=O)[C@H](C(C)C)NC1=O [SP-116] (Ac-FIDE[S5]VLM[S5]LVIEMAA-NH2; staple 5-9) > 30 µM

====

- Test system: HRE-bla ME-180 cells
- EXPERIMENT NOTES: Reporter gene assay (HRE-bla ME-180 HIF reporter, GeneBLAzer)
- Format: cell-based, human
- EXPERIMENTAL CONTEXT: 24 hour normoxia
Bridge positions count the residues as written; N and C are the ends. Square brackets hold non-standard residues; d marks the D form. Peptide text beside a SMILES is read from it. S5 = C=CCCC[C@](C)(N)C(=O)O; Nle = CCCC[C@H](N)C(=O)O
ASSAY READOUT: EC50

What measured EC50 is associated with CCCC[C@H](NC(=O)[C@H](CCC(=O)O)NC(=O)[C@@H](NC(=O)[C@@H](NC(=O)[C@H](CC(C)C)NC(=O)[C@]1(C)CCCC=CCCC[C@](C)(NC(=O)[C@H](CCC(=O)O)NC(=O)[C@H](CC(=O)O)NC(=O)[C@@H](NC(=O)[C@H](Cc2ccccc2)NC(C)=O)[C@@H](C)CC)C(=O)N[C@@H]([C@@H](C)O)C(=O)N[C@@H](CC(C)C)C(=O)N[C@@H](CCCC)C(=O)N1)C(C)C)[C@@H](C)CC)C(=O)N[C@@H](C)C(=O)N[C@@H](CC(C)C)C(N)=O [SP-139] (Ac-FIDE[S5]TL[Nle][S5]LVIE[Nle]AL-NH2; staple 5-9) on HRE-bla ME-180 cells? > 30 µM
